- method-notes: Half in Sprague-Dawley rat at 100 mg/kg, ip and measured upto 8 hrs by LC-MS/MS analysis
- Type: ADME, organism-based
- conditions: in vivo
experimental-readout: half-life

- Cc1c(Cl)cccc1Nc1ccc(F)cc1C(=O)NCc1ccc(O)c(O)c1: 1.56 h

====

- method-notes: AUC (0 to t) in Sprague-Dawley rat at 100 mg/kg, ip and measured upto 8 hrs by LC-MS/MS analysis
- Assay type: ADME, organism-based
- Design: dose 100 mg/kg, time < 8 hrs, route ip
- conditions: in vivo
experimental-readout: AUC(0-t) at 8 h (ng·h/mL)

• Cc1c(Cl)cccc1Nc1ccc(F)cc1C(=O)NCc1ccc(O)c(O)c1 = 18200
